Target: T1, human IGF-1R (native, on cells) (human, UniProt P08069 31-1367)
T1 construct: also called hIGF-1R; native IGF-1R on MCF-7 cells
Assay: FACS titration, MCF-7
readoutType: pEC50
Formally, pEC50 is defined as -log10 of the concentration c, with c in mol/L.

binder	pEC50
hz208F2 H052/L021 (antibody, human IgG1, kappa, V domains shown, humanized 208F2 variant) VH: QVQLVQSGAEVKKPGASVKVSCKASGYTFTSYYMHWVRQAPGQGLEWMGWIWPGDGSTKYAQKFQGRVTMTRDTSTSTVYMELSSLRSEDTAVYFCASPMITPNYAMDYWGQGTLVTVSS VL: DIQMTQSPSSLSASVGDRVTITCRASQDISKYLNWYQQKPGKAPKLLIYYTSRLHSGVPSRFSGRGSGTDFSLTISSLQPEDFATYFCQQGSTLPYTFGGGTKVEIKR	9.24

Req: Given the entry hz208F2 H037/L021 (antibody, human IgG1, kappa, V domains shown, humanized 208F2 variant) VH: QVQLVQSGAEVKKPGASVKVSCKASGYTFTSYYMHWVRQAPGQGLEWMGWIWPGDGSTKYAQKFQGRVTMTRDKSSSTVYMELSSLRSEDTAVYFCASPMITPNYAMDYWGQGTLVTVSS VL: DIQMTQSPSSLSASVGDRVTITCRASQDISKYLNWYQQKPGKAPKLLIYYTSRLHSGVPSRFSGRGSGTDFSLTISSLQPEDFATYFCQQGSTLPYTFGGGTKVEIKR , report its measured pEC50.
Resp: 9.32

Req: // next record hz208F2 H037/L018 (antibody, human IgG1, kappa, V domains shown, humanized 208F2 variant) VH: QVQLVQSGAEVKKPGASVKVSCKASGYTFTSYYMHWVRQAPGQGLEWMGWIWPGDGSTKYAQKFQGRVTMTRDKSSSTVYMELSSLRSEDTAVYFCASPMITPNYAMDYWGQGTLVTVSS VL: DIQMTQSPSSLSASVGDRVTITCRASQDISKYLNWYQQKPGKAPKLLIYYTSRLQSGVPSRFSGRGSGTDYSLTISSLQPEDFATYFCQQGSTLPYTFGGGTKVEIKR
Resp: 9.31
